molecular target: human 5-HT6 receptor (Homo sapiens); construct: expressed in transfected cells; host or cells: CHO cells (membrane preparation); test: Serotonin 5-HT6 receptor binding assay ([3H]-clozapine); settings: 100 nM test drug; [3H]-clozapine 2 nM; human 5-HT6 receptor-expressing CHO cell membrane; read-out: BINDING INHIBITION RATE (%) 5HT6 100 nM
Sequence (P50406 whole entry): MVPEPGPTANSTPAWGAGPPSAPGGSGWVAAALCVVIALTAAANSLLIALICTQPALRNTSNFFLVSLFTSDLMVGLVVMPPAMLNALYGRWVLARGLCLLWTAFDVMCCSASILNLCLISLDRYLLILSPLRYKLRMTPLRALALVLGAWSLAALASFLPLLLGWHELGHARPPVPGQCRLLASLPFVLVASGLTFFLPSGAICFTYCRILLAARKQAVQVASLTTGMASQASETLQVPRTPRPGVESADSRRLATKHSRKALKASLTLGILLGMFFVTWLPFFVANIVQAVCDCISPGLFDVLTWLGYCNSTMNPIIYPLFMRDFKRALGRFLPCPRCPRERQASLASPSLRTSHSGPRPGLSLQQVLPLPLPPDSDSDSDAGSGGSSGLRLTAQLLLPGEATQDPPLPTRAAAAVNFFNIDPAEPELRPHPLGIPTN
measured attribute: inhibition at 0.1 µM (%)

> print(dat)
                                    compound  value.reported
 1  Cc1ccc2cc(C(=O)N3CCC[C@H]3CCN3CCN(c4n[nH]c5ccccc45)CC3)[nH]c2c1 [Example 2]              95
 2  Cc1ccc2cc(C(=O)N3CCC[C@H]3CCN3CCC(N4CCCc5ccccc54)CC3)[nH]c2c1 [Example 12]              84
 3  O=C(c1ccc(F)cc1)C1CCN(CC[C@@H]2CCCN2C(=O)c2[nH]c3ccccc3c2F)CC1 [Example 165]              90
 4  C[C@H]1CC[C@@H](CCN2CCC(C(=O)c3ccc(F)cc3)CC2)N1C(=O)c1cc2ccc(SC(F)(F)F)cc2[nH]1 [Example 168]              94
 5  O=C(c1ccc(F)cc1)C1CCN(CC[C@@H]2CCCN2C(=O)c2cc3c(F)cccc3[nH]2)CC1 [Example 62]              87
 6  Cc1ccc2cc(C(=O)N3CCC[C@H]3CCN3CCN(c4n[nH]c5ccc(F)cc45)CC3)[nH]c2c1 [Example 25]              82
 7  O=C(c1ccc(F)cc1)C1CCN(CC[C@@H]2CCCN2C(=O)c2cc3ccccc3n2-c2ccncc2)CC1 [Example 49]              75
 8  Cc1ccc2[nH]c(C(=O)N3CCC[C@H]3CCN3CCC(c4coc5ccccc45)CC3)cc2c1 [Example 8]              93
 9  Cc1ccc2cc(C(=O)N3CCC[C@H]3CCN3CCC(n4ccc5ccc(F)cc54)CC3)[nH]c2c1 [Example 10]              74
10  CC(=O)Nc1cccc2cc(C(=O)N3CCC[C@H]3CCN3CCC(C(=O)c4ccc(F)cc4)CC3)n(C)c12 [Example 63]              17
11  CCNC(=O)O[C@@H]1C[C@@H](CCN2CCC(c3c[nH]c4ccccc34)CC2)N(C(=O)c2cc3cc(OC)ccc3[nH]2)C1 [Example 36]              86
12  COc1cc2cc(C(=O)N3CCC[C@H]3CCN3CCC(C(=O)c4ccc(F)cc4)CC3)[nH]c2cn1 [Example 50]              88
13  O=C(/C=C/c1ccc2c(c1)OCO2)N1CCC[C@H](CN2CCC(c3c[nH]c4ccccc34)CC2)C1 [Example 34]              86
14  O=C(/C=C/c1ccc2c(c1)OCO2)N1CCC[C@H](CN2CCC(c3noc4cc(F)ccc34)CC2)C1 [Example 17]              93
15  N#Cc1ccc2[nH]c(C(=O)N3CCC[C@H]3CCN3CCC(C(=O)c4ccc(F)cc4)CC3)cc2c1 [Example 56]              91
16  O=C(c1ccc(F)cc1)C1CCN(C[C@H]2CCCN(C(=O)c3cc4ccc(Cl)cc4[nH]3)C2)CC1 [Example 45]              97
17  COc1ccc2[nH]c(C(=O)N3CCCC[C@H]3CCN3CCC(c4coc5ccccc45)CC3)cc2c1 [Example 26]              65
18  COc1ccc2cc(C(=O)N3CCOC[C@H]3CCN3CCC(c4noc5cc(F)ccc45)CC3)[nH]c2c1 [Example 15]              79
19  O=C(c1ccc(F)cc1)C1CCN(CC[C@@H]2CCCN2C(=O)c2[nH]c3cc(OC(F)(F)F)ccc3c2F)CC1 [Example 164]              99
20  Cc1ccc2cc(C(=O)N3C[C@H](F)C[C@H]3CCN3CCC(C(=O)c4ccc(F)cc4)CC3)[nH]c2c1 [Example 53]              94
21  CC(C)c1ccc2cc(C(=O)N3CCC[C@H]3CCN3CCC(C(=O)c4ccc(F)cc4)CC3)[nH]c2c1 [Example 161]              97
22  Cc1ccc2cc(C(=O)N3CCC[C@H]3CCN3CCN(c4noc5cc(F)ccc45)CC3)[nH]c2c1 [Example 21]              94
23  O=C(/C=C/c1ccc2c(c1)OCO2)N1CCCC[C@H]1CCN1CCN(c2cccc3ccccc23)CC1 [Example 9]              61
24  Cc1ccc2[nH]c(C(=O)N3CCOC[C@H]3CCN3CCC(c4coc5ccccc45)CC3)cc2c1 [Example 27]              85
25  COc1ccc2cc(C(=O)N3CCCC[C@H]3CCN3CCC(c4c[nH]c5ccccc45)CC3)[nH]c2c1 [Example 31]              88
26  O=C(/C=C/c1ccc2c(c1)OCO2)N1CCC[C@@H](CN2CCC(c3noc4cc(F)ccc34)CC2)C1 [Example 16]              87
27  Cc1ccc2nc(C(=O)N3CCC[C@H]3CCN3CCC(C(=O)c4ccc(F)cc4)CC3)[nH]c2c1 [Example 59]              87
28  Cc1ccc2cc(C(=O)N3CCC[C@H]3CCN3CCC(c4c[nH]c5cc(F)ccc45)CC3)[nH]c2c1 [Example 5]              98
29  Cc1ccc2cc(C(=O)N3C[C@H](O)CC[C@H]3CCN3CCC(c4c[nH]c5ccccc45)CC3)[nH]c2c1 [Example 39]              86

Values were extracted from patent US8541585B2.
